The values you see were collected from patent US20080200404A1.

Hi there, I'd appreciate the recorded IC50 for every entry that follows.
system: Plasmodium falciparum TM91C235; experiment: In vitro antimalarial [3H]-hypoxanthine incorporation assay, TM91C235; format: cell-based; conditions: Plasmodium falciparum; P. falciparum TM91C235 (multiple drug resistant isolate), 72 hours exposure
Report the figure in mg/L without appending any unit label.

Query :: Return IC50 for the following compound: CCCCNC(=S)NCCCN1C[C@H](C)C[C@@](C)(O)[C@H](O[C@@H]2O[C@H](C)C[C@H](N(C)C)[C@H]2O)[C@@H](C)[C@H](O[C@H]2C[C@@](C)(OC)[C@@H](O)[C@H](C)O2)[C@@H](C)C(=O)O[C@H](CC)[C@@](C)(O)[C@H](O)[C@H]1C.O=CO
Result :: 0.364

Query :: State, in one line, measured IC50 of CC[C@H]1OC(=O)[C@H](C)[C@@H](O[C@H]2C[C@@](C)(OC)[C@@H](O)[C@H](C)O2)[C@H](C)[C@@H](O[C@@H]2O[C@H](C)C[C@H](N(C)C)[C@H]2O)[C@](C)(O)C[C@@H](C)CN(CCCNC(=S)Nc2ccc(-n3cccn3)cc2)[C@H](C)[C@@H](O)[C@]1(C)O.O=CO
Result :: 0.105

Query :: Return IC50 for the following compound: CC[C@H]1OC(=O)[C@H](C)[C@@H](O[C@H]2C[C@@](C)(OC)[C@@H](O)[C@H](C)O2)[C@H](C)[C@@H](O[C@@H]2O[C@H](C)C[C@H](N(C)C)[C@H]2O)[C@](C)(O)C[C@@H](C)CN(CCCN(CCC(N)=O)C(=S)NCCc2ccccc2)[C@H](C)[C@@H](O)[C@]1(C)O
Result :: 0.161

Query :: Hello, please tell me recorded IC50 for this one: CC[C@H]1OC(=O)[C@H](C)[C@@H](O[C@H]2C[C@@](C)(OC)[C@@H](O)[C@H](C)O2)[C@H](C)[C@@H](O[C@@H]2O[C@H](C)C[C@H](N(C)C)[C@H]2O)[C@](C)(O)C[C@@H](C)CN(CCCNC(=S)Nc2ccc(OC)cc2)[C@H](C)[C@@H](O)[C@]1(C)O
Result :: 0.201

Query :: Given CC[C@H]1OC(=O)[C@H](C)[C@@H](O[C@H]2C[C@@](C)(OC)[C@@H](O)[C@H](C)O2)[C@H](C)[C@@H](O[C@@H]2O[C@H](C)C[C@H](N(C)C)[C@H]2O)[C@](C)(O)C[C@@H](C)CN(CCCNC(=S)Nc2cccc(F)c2)[C@H](C)[C@@H](O)[C@]1(C)O.O=CO , respond with its IC50.
Result :: 0.115

Query :: Identify IC50 associated with the compound CC[C@H]1OC(=O)[C@H](C)[C@@H](O[C@H]2C[C@@](C)(OC)[C@@H](O)[C@H](C)O2)[C@H](C)[C@@H](O[C@@H]2O[C@H](C)C[C@H](N(C)C)[C@H]2O)[C@](C)(O)C[C@@H](C)CN(CCCNC(=S)Nc2ccc(C)cc2)[C@H](C)[C@@H](O)[C@]1(C)O
Result :: 0.154

Query :: Name the recorded IC50 of the item CCOC(=O)CCN(CCCN1C[C@H](C)C[C@@](C)(O)[C@H](O[C@@H]2O[C@H](C)C[C@H](N(C)C)[C@H]2O)[C@@H](C)[C@H](O[C@H]2C[C@@](C)(OC)[C@@H](O)[C@H](C)O2)[C@@H](C)C(=O)O[C@H](CC)[C@@](C)(O)[C@H](O)[C@H]1C)C(=O)NC(C)c1cccc2ccccc12 (stereo partly shown) in your answer.
Result :: 0.0679

Query :: Determine its reported IC50: CCOC(=O)CCN(CCCN1C[C@H](C)C[C@@](C)(O)[C@H](O[C@@H]2O[C@H](C)C[C@H](N(C)C)[C@H]2O)[C@@H](C)[C@H](O[C@H]2C[C@@](C)(OC)[C@@H](O)[C@H](C)O2)[C@@H](C)C(=O)O[C@H](CC)[C@@](C)(O)[C@H](O)[C@H]1C)C(=S)NCc1ccccc1
Result :: 0.0693

Query :: Assign IC50 to the following record: CC[C@H]1OC(=O)[C@H](C)[C@@H](O[C@H]2C[C@@](C)(OC)[C@@H](O)[C@H](C)O2)[C@H](C)[C@@H](O[C@@H]2O[C@H](C)C[C@H](N(C)C)[C@H]2O)[C@](C)(O)C[C@@H](C)CN(CCCNC(=O)Nc2cccc(F)c2)[C@H](C)[C@@H](O)[C@]1(C)O.O=CO
Result :: 0.16

Query :: Please indicate IC50 recorded for CCc1ccccc1NC(=S)NCCCN1C[C@H](C)C[C@@](C)(O)[C@H](O[C@@H]2O[C@H](C)C[C@H](N(C)C)[C@H]2O)[C@@H](C)[C@H](O[C@H]2C[C@@](C)(OC)[C@@H](O)[C@H](C)O2)[C@@H](C)C(=O)O[C@H](CC)[C@@](C)(O)[C@H](O)[C@H]1C
Result :: 0.24

Query :: Tell me its IC50 given CC[C@H]1OC(=O)[C@H](C)[C@@H](O[C@H]2C[C@@](C)(OC)[C@@H](O)[C@H](C)O2)[C@H](C)[C@@H](O[C@@H]2O[C@H](C)C[C@H](N(C)C)[C@H]2O)[C@](C)(O)C[C@@H](C)CN(CCCNC(=S)Nc2ccc(C3CC4CCC3C4)cc2)[C@H](C)[C@@H](O)[C@]1(C)O.O=CO (stereo partly shown) as the entry.
Result :: 0.111

Query :: Determine its reported IC50: CC[C@H]1OC(=O)[C@H](C)[C@@H](O[C@H]2C[C@@](C)(OC)[C@@H](O)[C@H](C)O2)[C@H](C)[C@@H](O[C@@H]2O[C@H](C)C[C@H](N(C)C)[C@H]2O)[C@](C)(O)C[C@@H](C)CN(CCCNC(=O)Nc2cccc(SC)c2)[C@H](C)[C@@H](O)[C@]1(C)O
Result :: 0.131

Query :: Report IC50 for CC[C@H]1OC(=O)[C@H](C)[C@@H](O[C@H]2C[C@@](C)(OC)[C@@H](O)[C@H](C)O2)[C@H](C)[C@@H](O[C@@H]2O[C@H](C)C[C@H](N(C)C)[C@H]2O)[C@](C)(O)C[C@@H](C)CN(CCCNC(=S)Nc2ccc(OC(F)F)cc2)[C@H](C)[C@@H](O)[C@]1(C)O
Result :: 0.12

----------
tested on: Plasmodium falciparum TM91C235; assay: In vitro antimalarial [3H]-hypoxanthine incorporation assay, TM91C235; format: cell-based; conditions: Plasmodium falciparum; P. falciparum TM91C235 (multiple drug resistant isolate), 72 hours exposure
Checkbox rule: IC50 lower than 0.3 µg/mL = label 1; IC50 not lower than 0.3 µg/mL = label 0.

Query :: # strict comparison: is reported IC50 < 0.3 µg/mL? input = CC[C@H]1OC(=O)[C@H](C)[C@@H](O[C@H]2C[C@@](C)(OC)[C@@H](O)[C@H](C)O2)[C@H](C)[C@@H](O[C@@H]2O[C@H](C)C[C@H](N(C)C)[C@H]2O)[C@](C)(O)C[C@@H](C)CN(CCCNC(=O)NC2CCCC2)[C@H](C)[C@@H](O)[C@]1(C)O [Example 56]
Result :: label 0

Query :: For CC[C@H]1OC(=O)[C@H](C)[C@@H](O[C@H]2C[C@@](C)(OC)[C@@H](O)[C@H](C)O2)[C@H](C)[C@@H](O[C@@H]2O[C@H](C)C[C@H](N(C)C)[C@H]2O)[C@](C)(O)C[C@@H](C)CN(CCCNC(=O)Nc2cc(C)oc2C(F)(F)F)[C@H](C)[C@@H](O)[C@]1(C)O.O=CO [Example 88] , is the recorded IC50 below the cut-off of 0.3 µg/mL?
Result :: label 0

Query :: Please state whether IC50 is below 0.3 µg/mL for CC[C@H]1OC(=O)[C@H](C)[C@@H](O[C@H]2C[C@@](C)(OC)[C@@H](O)[C@H](C)O2)[C@H](C)[C@@H](O[C@@H]2O[C@H](C)C[C@H](N(C)C)[C@H]2O)[C@](C)(O)C[C@@H](C)CN(CCCNC(=O)Nc2cccc(Cl)c2)[C@H](C)[C@@H](O)[C@]1(C)O.O=CO [Example 80]
Result :: label 1

Query :: Given CC[C@H]1OC(=O)[C@H](C)[C@@H](O[C@H]2C[C@@](C)(OC)[C@@H](O)[C@H](C)O2)[C@H](C)[C@@H](O[C@@H]2O[C@H](C)C[C@H](N(C)C)[C@H]2O)[C@](C)(O)C[C@@H](C)CN(CCCNC(=S)NCC(C)C)[C@H](C)[C@@H](O)[C@]1(C)O.O=CO [Example 149] , is recorded IC50 strictly lower than 0.3 µg/mL?
Result :: label 0

Query :: Given CC[C@H]1OC(=O)[C@H](C)[C@@H](O[C@H]2C[C@@](C)(OC)[C@@H](O)[C@H](C)O2)[C@H](C)[C@@H](O[C@@H]2O[C@H](C)C[C@H](N(C)C)[C@H]2O)[C@](C)(O)C[C@@H](C)CN(CCCNC(=S)Nc2ccc(Oc3ccccc3)nc2)[C@H](C)[C@@H](O)[C@]1(C)O.O=CO [Example 146] , is recorded IC50 strictly lower than 0.3 µg/mL?
Result :: label 1
